experimental.system: FGFR2 (Homo sapiens)
Construct: purchased Invitrogen PV3368
Sequence (P21802 22-821): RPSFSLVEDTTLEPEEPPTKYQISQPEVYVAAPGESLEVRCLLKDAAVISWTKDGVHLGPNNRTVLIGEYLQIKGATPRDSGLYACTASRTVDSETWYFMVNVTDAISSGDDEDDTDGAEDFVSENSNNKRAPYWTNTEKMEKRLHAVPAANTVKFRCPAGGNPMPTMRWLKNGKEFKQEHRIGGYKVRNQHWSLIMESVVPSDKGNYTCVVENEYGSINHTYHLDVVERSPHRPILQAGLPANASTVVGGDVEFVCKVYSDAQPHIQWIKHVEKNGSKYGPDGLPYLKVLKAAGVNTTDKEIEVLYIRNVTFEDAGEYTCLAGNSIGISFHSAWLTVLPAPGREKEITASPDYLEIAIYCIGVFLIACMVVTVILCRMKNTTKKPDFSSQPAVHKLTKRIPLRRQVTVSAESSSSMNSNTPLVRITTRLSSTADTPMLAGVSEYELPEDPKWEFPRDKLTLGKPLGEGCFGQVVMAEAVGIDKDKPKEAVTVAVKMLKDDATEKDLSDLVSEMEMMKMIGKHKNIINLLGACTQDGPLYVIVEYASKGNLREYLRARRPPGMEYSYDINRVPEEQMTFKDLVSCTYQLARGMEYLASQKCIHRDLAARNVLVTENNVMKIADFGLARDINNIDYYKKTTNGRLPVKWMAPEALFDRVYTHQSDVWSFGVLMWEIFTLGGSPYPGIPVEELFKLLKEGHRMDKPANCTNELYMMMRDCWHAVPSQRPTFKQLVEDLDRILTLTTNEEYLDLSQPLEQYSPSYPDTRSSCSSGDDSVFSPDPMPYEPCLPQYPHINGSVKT
experiment.summary: 33P isotope-labeled kinase activity test (Reaction Biology Corp), wild-type FGFR2
Assay type: biochemical
measurement.parameters: ratio of IC50 FGFR1 to IC50 FGFR2
Structures can show the parent of a compound that is named as a salt.
Assignment: determine reported Selectivity FGFR1/2 for the given compounds.
I'd appreciate a reply containing only the number, no unit.

Exercise: Entry COc1cc(OC)cc(-c2nc(-c3nc(-c4ccc(C5CCN(C)CC5)nc4)cnc3N)cn(C)c2=O)c1 [Hydrochloride salt of 0036] has what Selectivity FGFR1/2?
Solution: 5.31

Exercise: # repeat for `COc1cc(OC)cc(-c2nc(-c3nc(-c4cn(C5CCNCC5)nc4C)cnc3N)cn(C)c2=O)c1`
Solution: 7.05

Exercise: # repeat for `COc1cc(OC)cc(-c2nc(-c3nc(-c4cnn(C)c4)cnc3N)cn(C)c2=O)c1`
Solution: 8.95

Exercise: # repeat for COc1cc(OC)cc(-c2nc(-c3nc(-c4cn(C5CCN(C)CC5)nc4C)cnc3N)cn(C)c2=O)c1 [Trifluoroacetate salt of 0016]
Solution: 6.94

Exercise: # repeat for COc1cc(OC)cc(-c2nc(-c3nc(-c4cnn(CC(O)CC(F)(F)F)c4C)cnc3N)cn(C)c2=O)c1 (single isomer, unassigned) [compound 0065]
Solution: 7.56

Exercise: # repeat for COc1cc(OC)c(F)c(-c2nc(-c3nc(-c4cn(C)nc4C)cnc3N)cn(C)c2=O)c1 [Trifluoroacetate salt of 0029]
Solution: 4.14

Exercise: # repeat for COc1cc(OC)c(Cl)c(-c2nc(-c3nc(-c4ccc(C5CCN(C)CC5)nc4)cnc3N)cn(C)c2=O)c1 [Trifluoroacetate salt of 0060]
Solution: 5.78

Exercise: # repeat for COc1cc(OC)cc(-c2nc(-c3nc(-c4cccnc4)cnc3N)cn(C)c2=O)c1 [Trifluoroacetate salt of 0018]
Solution: 48.27

Exercise: # repeat for `COCCN1CCC(n2cc(-c3cnc(N)c(-c4cn(C)c(=O)c(-c5cc(OC)cc(OC)c5)n4)n3)c(C)n2)CC1`
Solution: 5.02

Where do these numbers come from? They come from patent US11286248B2.
